Record set: IC50 | MAGL (Homo sapiens, UniProt Q99685) | literature, multiple sources.
Criterion: IC50 strictly less than 100 nM. Met: 1.0. Not met: 0.0.

Completed entries (count: 5):
compound | study.system | class.assignment
COCC1(COc2ncc(C(=O)N3CCN(c4nc5nc(Cl)ccc5o4)CC3)cc2C)CC1 | MAGL (Homo sapiens, UniProt Q99685) | 0.0
Cc1ccc2oc(N3CCN(C(=O)c4cnc(OCC5(C)CC5)c(F)c4)CC3)nc2n1 | MAGL (Homo sapiens, UniProt Q99685) | 0.0
O=C(c1ccccc1)N1CC[C@H](NC2CN(C(=O)c3cc4cc(-c5ccccc5)ccc4o3)C2)C1 | MAGL (Homo sapiens, UniProt Q99685) | 0.0
O=C1CO[C@H]2CCN(C(=O)N3CCC(OCc4ccc(F)cc4Cl)CC3)C[C@H]2N1 | MAGL (Homo sapiens, UniProt Q99685) | 1.0
O=C(c1cccc(N2CCOCC2)c1Cl)N1CCN2C[C@@H](c3ccc(F)c(Cl)c3)OC[C@@H]2C1 | MAGL (Homo sapiens, UniProt Q99685) | 0.0

Req: Given O=C(c1nccs1)N1CCN(C2CN(C(=O)c3cccc4oc(-c5ccccc5Cl)nc34)C2)CC1 , is recorded IC50 strictly lower than 100 nM?
Resp: 1.0

Req: Given O=C(c1cscn1)N1CC(N2CCN(C(=O)c3nc4cc(Cl)ccc4s3)CC2)C1 , is recorded IC50 strictly lower than 100 nM?
Resp: 0.0

Req: Given O=C(c1cc(-c2ccccc2)n(-c2ccccc2)n1)N1CC(N2CCN(C(=O)c3nccs3)CC2)C1 , is recorded IC50 strictly lower than 100 nM?
Resp: 1.0

Req: Given CC1(COc2ncc(C(=O)N3CCN(c4nc5nc(Cl)ccc5o4)CC3)cc2Cl)CC1 , is recorded IC50 strictly lower than 100 nM?
Resp: 1.0

Req: Given CN(C(=O)Cn1ccc2cc(C(=O)N3CC(N4CCN(C(=O)c5nccs5)CC4)C3)ccc21)c1ccccc1 , is recorded IC50 strictly lower than 100 nM?
Resp: 0.0

Req: Given Cc1nc2cc(C(=O)N3CC(N4CCN(C(=O)c5cscn5)CC4)C3)ccc2n1C1CCC(F)(F)CC1 , is recorded IC50 strictly lower than 100 nM?
Resp: 0.0

Req: Given N#Cc1cc(-c2cccc(C(=O)N3CCN4C[C@@](O)(c5ccc(F)c(Cl)c5)OC[C@@H]4C3)c2Cl)c[nH]1 , is recorded IC50 strictly lower than 100 nM?
Resp: 1.0

Req: Given O=C(c1cnc2ccccc2c1Cl)N1CCN2C[C@@H](c3ccc(F)c(Cl)c3)OC[C@@H]2C1 , is recorded IC50 strictly lower than 100 nM?
Resp: 0.0

Req: Given O=C(c1cccc(-c2cccc(F)c2)c1)N1CC(N2CCN(C(=O)c3nccs3)CC2)C1 , is recorded IC50 strictly lower than 100 nM?
Resp: 1.0

Req: Given O=C(c1cscn1)N1CC(N2CCN(C(=O)c3ccc(-c4ccccc4)cc3)C(Cc3ccccc3)C2)C1 (stereo not drawn) , is recorded IC50 strictly lower than 100 nM?
Resp: 0.0

Req: Given Cc1ccc2c(C(F)(F)F)c(C(=O)N3CC(N4CCN(C(=O)c5nccs5)CC4)C3)sc2c1 , is recorded IC50 strictly lower than 100 nM?
Resp: 0.0

Req: Given O=C(c1ccccc1)N1CCN(C2CN(C(=O)c3ccc(Oc4ccccn4)c(Cl)c3)C2)CC1 , is recorded IC50 strictly lower than 100 nM?
Resp: 0.0

Req: Given Cc1ccnc(-n2ccc3cc(C(=O)N4CC(N5CCN(C(=O)c6cscn6)CC5)C4)ccc32)c1 , is recorded IC50 strictly lower than 100 nM?
Resp: 0.0

Req: Given COc1cccc(C(=O)N2CCN3C[C@](O)(c4nc5ccccc5[nH]4)OC[C@H]3C2)c1Cl (single isomer, unassigned) , is recorded IC50 strictly lower than 100 nM?
Resp: 0.0

Req: Given COc1cccc(C(=O)N2CCN3C[C@@H](c4ccc(Cl)c(C(F)(F)F)n4)OC[C@@H]3C2)c1Cl , is recorded IC50 strictly lower than 100 nM?
Resp: 0.0

Req: Given O=C(c1ccc2c(ccn2-c2ccc(OC(F)(F)F)cc2)c1)N1CC(N2CCN(C(=O)c3nccs3)CC2)C1 , is recorded IC50 strictly lower than 100 nM?
Resp: 1.0

Req: Given O=C(c1cscn1)N1CC[C@H](NC2CN(C(=O)c3sc4cc(-c5ccccc5)ccc4c3Cl)C2)C1 , is recorded IC50 strictly lower than 100 nM?
Resp: 1.0

Req: Given O=C(c1cc2ccc(-c3cccnc3F)cc2[nH]1)N1CC(N2CCN(C(=O)c3nccs3)CC2)C1 , is recorded IC50 strictly lower than 100 nM?
Resp: 0.0

Req: Given CC(C)(C)Cc1ccc(C2CN(C(=O)N3CC[C@@H]4OCC(=O)N[C@@H]4C3)C2)cc1 , is recorded IC50 strictly lower than 100 nM?
Resp: 1.0

Req: Given O=C1CO[C@H]2CCN(C(=O)N3CCC(C4(c5ccc(C(F)(F)F)cc5)CC4)CC3)C[C@H]2N1 , is recorded IC50 strictly lower than 100 nM?
Resp: 1.0

Req: Given Cc1nc(C(=O)N2CCN(c3nc4nc(Cl)ccc4o3)CC2)cnc1OCC1(C(F)(F)F)CC1 , is recorded IC50 strictly lower than 100 nM?
Resp: 1.0

Req: Given O=C(c1ccc2c(ccn2-c2ccc(F)c(F)c2)c1)N1CC(C2CCN(C(=O)c3cscn3)CC2)C1 , is recorded IC50 strictly lower than 100 nM?
Resp: 1.0

Req: Given COc1cccc(C(=O)N2CCN3C[C@@](O)(c4ccc(C(F)(F)F)[nH]c4=O)OC[C@@H]3C2)c1Cl , is recorded IC50 strictly lower than 100 nM?
Resp: 0.0
